Here's a roundup of IC50 values tested on Receptor-interacting serine/threonine-protein kinase 1 (Homo sapiens), taken from various published works.

`C[C@H]1CC[C@@H](c2ccc(F)cc2)N1C(=O)c1cn(C)c2ccc(-c3ccn4nc(NC(=O)C5CC5)nc4c3)cc12` has a reported IC50 of 1 to 10 nM

Looking up `CSc1nc(N)cc(N2CCC(C(=O)N3N=CC[C@H]3c3ccccc3)CC2)n1` , I see its IC50 listed as 1 to 31.6 nM

The recorded IC50 for entry `COc1cccc([C@H](C)NC(=O)c2cn(C)c3ccc(-c4ccn5nc(NC(=O)C(C)C)nc5c4)cc23)c1` equals 10 to 100 nM

The molecule listed as `CC(=O)N1CCC(NC(=O)c2ccnc(N3CCC(C(=O)N4N=CC[C@H]4c4ccccc4)CC3)n2)CC1` shows IC50 equal to 1 to 31.6 nM

In plain terms, CC(C)C(=O)Nc1nc2cc(-c3ccc4c(c3)c(C(=O)NC(C)c3cccnc3)cn4C)ccn2n1 (stereo not shown) has a documented IC50 of ≥ 1000 nM

get_value(item= `N#Cc1cccc([C@@H]2CC=NN2C(=O)C2CCN(c3ccc4nccn4n3)CC2)c1` , readout=IC50) returns 1 to 31.6 nM

For this molecule ( `O=C(Nc1cccc(Cl)c1F)c1nc(Cc2ccccc2)c[nH]1` ), measured IC50 is 6960 nM

# IC50 of `NC(=O)COc1nc(N2CCC(C(=O)N3N=CC[C@H]3c3ccccc3)CC2)ncc1F` = 1 to 31.6 nM

Reported IC50 ( `O=C(NCc1cccc2ccccc12)c1c[nH]c2ccc(-c3ccc4nc(NC(=O)C5CC5)sc4c3)cc12` ) = ≥ 1000 nM

For record `O=C(NCc1ccccc1F)c1c[nH]c2ccc(-c3ccc4nc(NC(=O)C5CC5)sc4c3)cc12` the listed IC50 is 10 to 100 nM

GET /value?item= O=C(N1N=CCC1c1ccccc1)C1(F)CCN(c2ncc(F)cn2)CC1 (stereo not shown) &field=IC50 returns 1 to 10 nM

For reference, reported IC50 for `COc1ccc(CNC(=O)c2c[nH]c3ccc(-c4ccc5nc(NC(=O)C6CC6)sc5c4)cc23)cc1OC` stands at 100 to 1000 nM

Sample `Cc1cc(=O)c(C(=O)N[C@H]2COc3cc(C#N)ccc3N(C)C2=O)nn1-c1cccc(F)c1` ; IC50 observed: 57.4 nM

[2H]C([2H])([2H])N1C(=O)C(NC(=O)c2n[nH]c(Cc3ccccc3)n2)CCc2ccc(C#CC(C)(C)O)cc21 (racemic) has a reported IC50 of 129 nM

response.value for `C[C@H](NC(=O)c1cn(C)c2ccc(-c3ccn4nc(NC(=O)N5CC(O)C5)nc4c3)cc12)c1cccc(F)c1` (field: IC50) = ≥ 1000 nM

Form field IC50, entry `CC(C)C(=O)Nc1nc2ccc(-c3ccc4c(c3)c(C(=O)N[C@@H](C)c3cccc(F)c3)cn4C)cn2n1` : 10 to 100 nM

Kindly note the recorded IC50 for `N#Cc1cncc(N2CCC(C(=O)N3N=CC[C@H]3c3ccccc3)CC2)n1` , which is 1 to 31.6 nM

Briefly, IC50 measured for `O=C1c2nn(Cc3cc(F)cc(F)c3)c(Cl)c2CCN1c1cccc(Cl)c1F` : 111 nM

Measured IC50, Cc1cccc(-n2nc(C(=O)NC3CCc4ccccc4NC3=O)c(=O)cc2C)c1 (stereo not shown) : 43.1 nM

For this molecule ( `C[C@H](NC(=O)c1c[nH]c2ccc(-c3cnc(NC(=O)C4CC4)nc3)cc12)c1cccc(F)c1` ), measured IC50 is ≥ 1000 nM

Field IC50 (entry `NC(=O)c1csc(N2CCC(C(=O)N3N=CC[C@H]3c3ccccc3)CC2)n1` ) reads 1 to 31.6 nM

According to the records, this molecule CN1C(=O)C(NC(=O)c2nccc(-c3ccccc3)n2)CCc2ccc(CN3CCN(c4ccncc4)CC3)cc21 (racemic) displays IC50 of 4460 nM

Looking up `O=C(Nc1cccc(Cl)c1F)c1ncn(Cc2cnccn2)n1` , I see its IC50 listed as 257 nM

Record `Cc1cccc(C(C)(C)C)c1NC(=O)c1nn(-c2ccccc2)c(C)cc1=O` . Reported IC50: 2680 nM

The reported value for `CC(C)C(=O)Nc1nc2cc(-c3ccc4c(c3)c(C(=O)N[C@@H](C)c3ccccn3)cn4C)ccn2n1` in terms of IC50 is 10 to 100 nM

Documented IC50 of `O=C(C1CCN(c2cc(C(F)(F)F)ncn2)CC1)N1N=CC[C@H]1c1ccccc1` : 1 to 31.6 nM

The reported value for `Cn1cc(C(=O)N2CCN(Cc3ccc4c(c3)OCO4)CC2)c2cc(-c3ccc4nc(NC(=O)C5CC5)sc4c3)ccc21` in terms of IC50 is ≥ 1000 nM

Reported IC50 ( `[2H]C([2H])([2H])n1cc(C(=O)N[C@@H](CC)c2ccc(F)cc2)c2cc(-c3ccn4nc(NC(=O)C5CC5)nc4c3)ccc21` ) = 10 to 100 nM

Looking up `CNC(=O)c1csc(N2CCC(C(=O)N3N=CC[C@H]3c3ccccc3)CC2)n1` , I see its IC50 listed as 1 to 31.6 nM

Short answer for `COCc1cc(=O)c(C(=O)Nc2cccc(Cl)c2F)nn1-c1ccccc1` : IC50 was 1780 nM

// field: IC50; key: `Cc1cc(=O)c(C(=O)Nc2nc(C(F)(F)F)c(Br)s2)nn1-c1ccccc1` ; value = 33300 nM
